Source: PubChem BioAssay (EPA / NIEHS)

Protocol Description: BSK_3C_TissueFactor: BioMAP Diversity Plus: 3C Assay for Tissue Factor Biomarker Activity (AID 2282997)
Cond: BioMAP 3C HUVEC, tissue factor biomarker readout; actives raise or lower the signal
Active and inactive are the calls of the source. How the source made its calls: active means hit-call score of the fitted dose curve at least 0.9, where 1 is the maximum; inactive means score below 0.9.
# output must be one of active, inactive

Use the examples below as a reference point.
CC(C)(O)c1cnn2c(-c3ccc(F)c(-c4c(F)cccc4C#N)c3)cnc2n1 = active
Clc1ccc(Cl)c(Cl)c1 = inactive

In: Identify the outcome logged in this assay for the compound shown: CCCCC(CC)COC(=O)c1ccc(C(=O)OCC(CC)CCCC)c(C(=O)OCC(CC)CCCC)c1 (stereo not drawn)
Out: inactive

In: Identify the outcome logged in this assay for the compound shown: ClC1=C(Cl)C2(Cl)C3C(Cl)C=CC3C1(Cl)C2(Cl)Cl (stereo not drawn)
Out: active

In: Identify the outcome logged in this assay for the compound shown: `CC(C)(OOC(C)(C)c1ccccc1)c1ccccc1`
Out: active

In: Identify the outcome logged in this assay for the compound shown: `c1ccc2c(c1)oc1ccccc12`
Out: inactive

In: Identify the outcome logged in this assay for the compound shown: `OCCOCCO`
Out: inactive

In: Identify the outcome logged in this assay for the compound shown: `N#CC(Br)(Br)C(N)=O`
Out: inactive

----------
Read-out: MYC, MYC (gene 4609)
Protocol Description: LTEA_HepaRG_MYC: Life Technologies and Expression Analysis (LTEA) Assay for MYC using HepaRG (AID 2283518)
Cond: mRNA level, 48 h; actives raise or lower the signal
Active and inactive are the calls of the source. Rule for the calls: active = hit-call score of the fitted dose curve at least 0.9, where 1 is the maximum; inactive = score below 0.9.
# output must be one of 1 for active, 0 for inactive

CC(C)(O)c1cnn2c(-c3ccc(F)c(-c4c(F)cccc4C#N)c3)cnc2n1 = 0
C1=Cc2cccc3cccc1c23 = 0
COP(=S)(OC)SCN1C(=O)c2ccccc2C1=O = 0

In: Identify the outcome logged in this assay for the compound shown: `Brc1ccc(Oc2ccccc2)cc1`
Out: 0

In: Identify the outcome logged in this assay for the compound shown: `Clc1ccc(C(c2ccc(Cl)cc2)C(Cl)(Cl)Cl)cc1`
Out: 0

In: Identify the outcome logged in this assay for the compound shown: O=C(O)C1C2CCC(O2)C1C(=O)O (stereo not drawn)
Out: 0

----------
Read-out: Tissue plasminogen activator (tPA), PLAT (gene 5327)
Protocol Description: BSK_BE3C_tPA: BioMAP Diversity Plus: BE3C Assay for Tissue plasminogen activator (tPA) Biomarker Activity (AID 2283041)
Cond: primary human bronchial epithelial cells; actives raise or lower the signal
Method: BSK_BE3C is a cell-based, multiplexed-readout assay that uses bronchial epithelial cell, a human lung primary cell, with measurements taken at 24 hours after chemical dosing in a 96-well plate.BSK_BE3C_tPA is an assay component measured in the BSK_BE3C assay. It measures tPA antibody related to regulation of gene expression using ELISA technology.Data from the assay component BSK_BE3C_tPA was analyzed into 1 assay endpoint. […]
The source made the active and inactive calls. Rule for the calls: active = hit-call score of the fitted dose curve at least 0.9, where 1 is the maximum; inactive = score below 0.9.
Measured Property: AC50

// solved cases for AC50 follow
OCCOCCO = inactive
ClCCOCCCl = inactive
CO[C@@H]1[C@H](OC(=O)NC(=O)CCl)CC[C@]2(CO2)[C@H]1[C@@]1(C)O[C@@H]1CC=C(C)C = 7.73 µM (active)
CN(C)c1ccccc1 = inactive

In: Name the reported AC50 value associated with the compound `c1ccc2c(c1)-c1cccc3cccc-2c13`
Out: inactive

In: Name the reported AC50 value associated with the compound `CCCCCOC(=O)c1ccccc1C(=O)OCCCCC`
Out: inactive

In: Name the reported AC50 value associated with the compound `CCC[CH2][Sn]([Cl])([CH2]CCC)[CH2]CCC`
Out: 0.227 µM (active)

In: Name the reported AC50 value associated with the compound `CN(C)C(=O)Nc1ccc(Cl)cc1`
Out: inactive

In: Name the reported AC50 value associated with the compound `Cc1ccc(N)cc1`
Out: inactive

----------
Read-out: Hypoxia-inducible factor 1-alpha (Homo sapiens) (UniProt Q16665)
Sequence (Q16665 whole entry, looked up): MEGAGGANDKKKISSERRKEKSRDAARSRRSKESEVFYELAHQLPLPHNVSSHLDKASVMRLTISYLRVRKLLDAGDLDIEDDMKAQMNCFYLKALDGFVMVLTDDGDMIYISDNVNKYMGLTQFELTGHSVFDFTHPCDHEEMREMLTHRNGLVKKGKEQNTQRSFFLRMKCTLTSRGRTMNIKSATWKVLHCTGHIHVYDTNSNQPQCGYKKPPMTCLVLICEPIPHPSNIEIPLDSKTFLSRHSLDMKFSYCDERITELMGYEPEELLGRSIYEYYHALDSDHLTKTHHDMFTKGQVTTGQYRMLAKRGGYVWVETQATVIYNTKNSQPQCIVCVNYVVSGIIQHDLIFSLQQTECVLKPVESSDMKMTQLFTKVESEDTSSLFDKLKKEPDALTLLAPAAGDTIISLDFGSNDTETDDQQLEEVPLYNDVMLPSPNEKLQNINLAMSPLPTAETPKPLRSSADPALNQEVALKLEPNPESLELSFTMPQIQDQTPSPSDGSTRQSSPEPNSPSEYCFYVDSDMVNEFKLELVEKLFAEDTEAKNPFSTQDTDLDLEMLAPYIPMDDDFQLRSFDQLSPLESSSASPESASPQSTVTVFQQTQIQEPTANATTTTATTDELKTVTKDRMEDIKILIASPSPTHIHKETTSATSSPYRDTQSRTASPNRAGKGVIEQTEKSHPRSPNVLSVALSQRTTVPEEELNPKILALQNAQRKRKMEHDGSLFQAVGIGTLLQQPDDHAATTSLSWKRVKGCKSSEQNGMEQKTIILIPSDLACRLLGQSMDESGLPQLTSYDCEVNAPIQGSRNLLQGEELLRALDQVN
Protocol Description: LTEA_HepaRG_HIF1A: Life Technologies and Expression Analysis (LTEA) Assay for Hypoxia-inducible factor 1 (HIF1A) Trancription factor using HepaRG (AID 2283503);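 further: HIF1A transcript by TaqMan qRT-PCR normalized to ACTB GAPDH and POLR2A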
Cond: mRNA level, 48 h; actives raise or lower the signal
Activity calls are given as the source filed them. Rule for the calls: active = hit-call score of the fitted dose curve at least 0.9, where 1 is the maximum; inactive = score below 0.9.
# output must be one of active, inactive

Use the examples below as a reference point.
Oc1ccccc1Cl = inactive
OCCCBr = inactive
ClC1=C(Cl)C2(Cl)C3C(Cl)C=CC3C1(Cl)C2(Cl)Cl (configuration not stated) = active

In: Identify the outcome logged in this assay for the compound shown: `Cc1ccc(N)cc1`
Out: inactive

In: Identify the outcome logged in this assay for the compound shown: CCOc1cccc(C2(N3CCN(c4ccccc4)CC3)CCC(C)CC2)c1 (configuration not stated)
Out: inactive

In: Identify the outcome logged in this assay for the compound shown: `C=CCc1ccc2c(c1)OCO2`
Out: inactive

In: Identify the outcome logged in this assay for the compound shown: `c1ccc2c(c1)oc1ccccc12`
Out: inactive

In: Identify the outcome logged in this assay for the compound shown: `CCCCCCCCn1sccc1=O`
Out: inactive

In: Identify the outcome logged in this assay for the compound shown: `Nc1cc(Cl)cc(C(=O)O)c1Cl`
Out: inactive

In: Identify the outcome logged in this assay for the compound shown: `Cc1cc(N=Nc2ccccc2C)ccc1N`
Out: active

In: Identify the outcome logged in this assay for the compound shown: `CC(C)(C)OOC(=O)c1ccccc1`
Out: inactive

In: Identify the outcome logged in this assay for the compound shown: `Clc1ccc(C(c2ccc(Cl)cc2)C(Cl)(Cl)Cl)cc1`
Out: inactive

----------
Tested System: Cellular tumor antigen p53 (Homo sapiens)
Protocol Description: ATG_p53_CIS: Attagene CIS-FACTORIAL HepG2 Assay for human p53 Transcription Factor (AID 2282994)
Cond: HepG2 p53 cis-element reporter, Attagene mRNA; actives raise or lower the signal
Activity calls are given as the source filed them. Rule for the calls: active = hit-call score of the fitted dose curve at least 0.9, where 1 is the maximum; inactive = score below 0.9.
# output must be one of active, inactive

Use the examples below as a reference point.
CC(C)(O)c1cnn2c(-c3ccc(F)c(-c4c(F)cccc4C#N)c3)cnc2n1 = active
CCCSC(=O)N(CCC)CCC = inactive
Oc1ccccc1Cl = inactive

In: Identify the outcome logged in this assay for the molecule shown: `Nc1ccc(Oc2ccc(N)cc2)cc1`
Out: inactive

In: Identify the outcome logged in this assay for the molecule shown: `CN(C)c1ccccc1`
Out: inactive

In: Identify the outcome logged in this assay for the molecule shown: `c1ccc2c(c1)oc1ccccc12`
Out: inactive

In: Identify the outcome logged in this assay for the molecule shown: `c1ccc2c(c1)-c1cccc3cccc-2c13`
Out: inactive

In: Identify the outcome logged in this assay for the molecule shown: `Clc1ccc(C(c2ccc(Cl)cc2)C(Cl)Cl)cc1`
Out: inactive

In: Identify the outcome logged in this assay for the molecule shown: `Clc1ccc(C(c2ccc(Cl)cc2)C(Cl)(Cl)Cl)cc1`
Out: inactive

----------
Tested System: Cytochrome P450 2C19 (Homo sapiens) (UniProt P33261)
Protocol Description: NVS_ADME_hCYP2C19: NovaScreen (NVS) CYP450-related Enzyme Activity (ADME) Assay for human CYP2C19 (AID 2283113);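 further: potency for inhibition seen as loss of fluorescent signal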
Results filed as inconclusive are left out. Active and inactive are the calls of the source. Rule for the calls: active = hit-call score of the fitted dose curve at least 0.9, where 1 is the maximum; inconclusive = response in the unintended direction; inactive = score below 0.9.
Attribute: AC50

In: Name the reported AC50 value associated with the compound CC(C)(C)C(O)(CCc1ccc(Cl)cc1)Cn1cncn1 (stereo not drawn)
Out: 0.698 µM (active)

In: Name the reported AC50 value associated with the compound `CO[C@@H]1[C@H](OC(=O)NC(=O)CCl)CC[C@]2(CO2)[C@H]1[C@@]1(C)O[C@@H]1CC=C(C)C`
Out: 2.21 µM (active)

In: Name the reported AC50 value associated with the compound `O=[N+]([O-])C(Br)(CO)CO`
Out: 1.93 µM (active)

----------
Read-out: Lipase C (LIPC), LIPC (gene 3990)
Protocol Description: LTEA_HepaRG_LIPC: Life Technologies and Expression Analysis (LTEA) Assay for Lipase C (LIPC) using HepaRG (AID 2283514)
Cond: mRNA level, 48 h; actives raise or lower the signal
Activity calls are given as the source filed them. Rule for the calls: active = hit-call score of the fitted dose curve at least 0.9, where 1 is the maximum; inactive = score below 0.9.
# output must be one of active, inactive

CC(C)(C)OOC(=O)c1ccccc1 = inactive
C[N+](C)(C)CC1CO1 (stereo unspecified) = inactive
CS(=O)(=O)NC(=O)c1cc(Oc2ccc(C(F)(F)F)cc2Cl)ccc1[N+](=O)[O-] = inactive
OCCCl = inactive
N#CC(Br)Br = inactive
Nc1ccc(Oc2ccc(N)cc2)cc1 = inactive
CCCCCCCCn1sccc1=O = active
CCC(C)c1ccc(O)cc1 (stereo unspecified) = inactive
CC(C)N(Cc1ccccc1)C(=O)C(C)(C)C = inactive
CCCCCCCCOC(=O)c1ccc(C(=O)OCCCCCCCC)c(C(=O)OCCCCCCCC)c1 = inactive

In: Identify the outcome logged in this assay for the compound shown: `OCCOCCO`
Out: inactive

In: Identify the outcome logged in this assay for the compound shown: CC(O)CCO (stereo unspecified)
Out: inactive

In: Identify the outcome logged in this assay for the compound shown: `O=P(OCCCl)(OCCCl)OCCCl`
Out: inactive

In: Identify the outcome logged in this assay for the compound shown: `O=C(Nc1ccccc1)c1ccccc1I`
Out: active

In: Identify the outcome logged in this assay for the compound shown: `ClC1=C(Cl)[C@]2(Cl)[C@H]3[C@H]([C@@H]4C=C[C@H]3C4)[C@@]1(Cl)C2(Cl)Cl`
Out: inactive

In: Identify the outcome logged in this assay for the compound shown: `Nc1cc(Cl)cc(C(=O)O)c1Cl`
Out: inactive
